Reported refractive index values for the following compounds.
assay: refractive index (Na D-line) (dimensionless); xn = mol fraction of the nth substance listed; settings: 288.15 K; 100.5 kPa; Liquid; Standard Abbe refractometry; x1 = 0.3
Numbers after ± are expanded uncertainties.
Value Kind: refractive index

>>> print(df.to_string())
                                   compound     endpoint_value
0  CCCC(=O)OCCC(C)C [3-methylbutyl butanoate] + CCO  1.39145 ± 0.00032
1     CCCCCC(=O)OCC [ethyl hexanoate] + CCO  1.38864 ± 0.00031
2   CCOC(=O)c1ccccc1 [ethyl benzoate] + CCO  1.43936 ± 0.00032
3  CC(=O)OCCC(C)C [3-methylbutyl ethanoate] + CCO  1.38393 ± 0.00032
4   CCCCCCCC(=O)OCC [ethyl octanoate] + CCO  1.39676 ± 0.00032
5  CCOC(=O)Cc1ccccc1 [ethyl phenylacetate] + CCO   1.4379 ± 0.00032
